- System: NDR1
- Construct: gene STK38
- Details: concentration: 1 μM, replicates: in singlicate; n = 1;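 note: KINOMEscan kinase panel screen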
Measurement Kind: %Inh (%)
Write it as a number; the unit % goes unstated.

Qu. Provide %Inh value for the following molecule: NS(=O)(=O)CCc1cccc(Nc2nccc(-c3c(-c4cccc(NC(=O)c5c(F)cccc5F)c4)nn4ccccc34)n2)c1 [GSK336735]
Ans. 18

Qu. Give the measured %Inh for Cc1cccc(Cn2ccn3c(=O)cc(N4CCOCC4)nc23)c1 [GSK2297542]
Ans. 33

Qu. For Fc1ccc(-c2nn3c(OCC(F)(F)F)cccc3c2-c2ccncc2)cc1 [GW514784] , write its %Inh.
Ans. 11

----------
- Test system: CSNK2A2
- Details: concentration: 1 μM, replicates: in singlicate; n = 1
Assign class by %Inh: not lower than 4% means true (1); lower than 4% means false (0).

Qu. Could you tell me if the measured %Inh of Fc1ccc(-c2ncn(CCCN3CCOCC3)c2-c2ccccn2)cc1 reaches 4% or more?
Ans. false (0)

Qu. Evaluate COc1cc2ncn(-c3cc(OCc4sccc4Cl)c(C(N)=O)s3)c2cc1OC : %Inh at minimum 4%?
Ans. true (1)

Qu. hey, is %Inh for this one >= 4%? Cc1cccc(-c2nc(-c3ccc(S(C)(=O)=O)cc3)sc2-c2ccncc2)c1
Ans. true (1)

Qu. For this compound, is measured %Inh 4% or higher? Fc1ccc(-c2nn3c(OCC(F)(F)F)cccc3c2-c2ccncc2)cc1
Ans. false (0)

Qu. Kindly determine if %Inh recorded for O=C(NOCC1CC1)c1ccc(F)c(F)c1Nc1ccc(I)cc1Cl is above or exactly 4%.
Ans. true (1)

Qu. Test whether the compound CN1c2ccc(CNc3ccc(F)cc3)cc2-c2c(cnn2C)S1(=O)=O records %Inh of 4% or higher.
Ans. false (0)

Qu. Form field: %Inh at least 4%? Entry: Nc1nccc(-c2c(-c3ccc(F)cc3)ncn2C2CCN(CC(F)(F)F)CC2)n1
Ans. false (0)

Qu. Has N#Cc1c(N2CCOCC2)sc(-c2ccn[nH]2)c1-c1ccc(Cl)cc1 a recorded %Inh greater than or equal to 4%?
Ans. true (1)

----------
Give measured %Inh for each item. Keep answers brief.
- System: PKN1
- Details: concentration: 1 μM, replicates: in singlicate; n = 1
Express the result in % but write the number alone.

Qu. Report %Inh on PKN1 for this entry: O=C(NCCCN1CCOCC1)c1cccc(Nc2nccc(Nc3ccc(Oc4ccccc4)cc3)n2)c1
Ans. 16

Qu. Provide %Inh, recorded with PKN1, of O=C(NCCNc1ccnc(Nc2ccc(F)cc2)n1)c1cc2ccccc2s1
Ans. 0

Qu. Quote %Inh with test system PKN1 for O=C1Cc2cc(Nc3nc(NCc4cccc(S(=O)(=O)C(F)(F)F)c4)ncc3C(F)(F)F)ccc2N1
Ans. 0

Qu. Write down the reported %Inh (system: PKN1) of O=c1cc(N2CCOCC2)nc2n(Cc3cccc4ccccc34)ccn12
Ans. 15

Qu. Recall the reported %Inh of CC(C)(C)n1cnc2c(N)ncnc21 on PKN1 and write it down.
Ans. 0

Qu. Please tell me the measured %Inh for CC(=O)Nc1ccc(COc2ccc(Nc3ccnc4cc(-c5ccccn5)ccc34)cc2)cc1.Cl ; system: PKN1.
Ans. 32

Qu. Name the value of %Inh reported for Nc1nccc(-c2c(-c3ccc(F)cc3)ncn2C2CCN(CC(F)(F)F)CC2)n1 when tested on PKN1.
Ans. 0

Qu. Report the value of %Inh obtained on PKN1 for C[C@@H](Oc1cc(-n2cnc3ccc(NC(=O)NC(C)(C)C)cc32)sc1C(N)=O)c1ccccc1Cl .
Ans. 0
